Reference source for all entries: paper PMC2972509

procedureSummary: Preliminary disposition studies in mice
Assay type: in vivo
assayContext: male, CD1, mouse, plasma, ip, 10 mg/kg
endpointName: Tmax

INSERT INTO assay_data (querysmiles, measuredresult) VALUES
  ('N#Cc1cccnc1N1CCN(CCNC(=O)c2ccc(F)cc2)CC1', '15 min'),
  ('COc1cccc(C(=O)NCCN2CCN(c3ncccc3C#N)CC2)c1', '30 min');
